SYSTEM: Bile acid receptor (Homo sapiens) (UniProt Q96RI1)
Sequence (Q96RI1 whole entry, looked up): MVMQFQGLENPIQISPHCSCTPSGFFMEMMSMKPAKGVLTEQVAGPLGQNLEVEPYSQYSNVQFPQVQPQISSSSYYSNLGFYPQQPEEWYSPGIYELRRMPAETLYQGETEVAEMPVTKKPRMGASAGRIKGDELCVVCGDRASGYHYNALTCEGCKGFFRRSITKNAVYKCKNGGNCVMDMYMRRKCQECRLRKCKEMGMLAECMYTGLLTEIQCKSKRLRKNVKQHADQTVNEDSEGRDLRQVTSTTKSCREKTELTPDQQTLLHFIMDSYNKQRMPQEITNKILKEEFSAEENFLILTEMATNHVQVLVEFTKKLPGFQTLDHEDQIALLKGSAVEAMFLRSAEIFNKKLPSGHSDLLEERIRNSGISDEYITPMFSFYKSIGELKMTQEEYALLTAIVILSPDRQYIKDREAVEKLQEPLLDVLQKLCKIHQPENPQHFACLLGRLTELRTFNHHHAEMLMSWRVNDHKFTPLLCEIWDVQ
RUN_DESCRIPTION: NVS_NR_hFXR_Antagonist: NovaScreen (NVS) Nuclear Receptor Binding Assay for human Farnesoid X Receptor Antagonism (FXR) (AID 2283350)
Results filed as inconclusive are left out. Active and inactive are the calls of the source. The calls were made as follows: active = hit-call score of the fitted dose curve at least 0.9, where 1 is the maximum; inconclusive = response in the unintended direction; inactive = score below 0.9.
The reply should name one outcome from true (active), false (inactive)

# example entries with known answers
>>> assigned_label("O=[N+]([O-])/N=C1\\NCCN1Cc1ccc(Cl)nc1")
"false"
>>> assigned_label("CC1(c2ccc(Oc3ccccc3)cc2)OC(=O)N(Nc2ccccc2)C1=O (centres undefined)")
"true"
>>> assigned_label("N#Cc1c(Cl)c(Cl)c(Cl)c(C#N)c1Cl")
"false"
>>> assigned_label("CCc1ccc(C(=O)NN(C(=O)c2cc(C)cc(C)c2)C(C)(C)C)cc1")
"false"
>>> assigned_label("CCCN(CCOc1c(Cl)cc(Cl)cc1Cl)C(=O)n1ccnc1")
"false"
>>> assigned_label("CCN(CC)C(=O)SCc1ccc(Cl)cc1")
"false"
>>> assigned_label("COC(=O)c1ccccc1S(=O)(=O)NC(=O)Nc1nc(C)nc(OC)n1")
"false"
>>> assigned_label("CCOc1nc(NC)nc(NC(=O)NS(=O)(=O)c2ccccc2C(=O)OC)n1")
"false"

Kindly consider the entry below.
// return assay outcome for CN1CSC(=S)N(C)C1
true

###

Read-out: Monokine induced gamma interferon (MIG), CXCL9 (gene 4283)
RUN_DESCRIPTION: BSK_3C_MIG: BioMAP Diversity Plus: 3C Assay for Monokine induced gamma interferon (MIG) Biomarker Activity (AID 2283021)
DETAILS: primary human endothelial cells (HUVEC); actives raise or lower the signal
The source made the active and inactive calls. The calls were made as follows: active = hit-call score of the fitted dose curve at least 0.9, where 1 is the maximum; inactive = score below 0.9.
The reply should name one outcome from y = active, n = inactive

// return assay outcome for O=C(Nc1ccccc1)Nc1cnns1
n

###

Test system: zebrafish Estrogen Receptor (ER2a), gene 317734
RUN_DESCRIPTION: ATG_zfER2a_XSP2: Attagene TRANS-FACTORIAL Multi-Species (XSP2) HepG2 Assay for zebrafish Estrogen Receptor (ER2a) (AID 2283818);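 also: hits raise reporter mRNA so AC50 reflects activation of zebrafish ER2a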
Records with an inconclusive call do not appear. The source made the active and inactive calls. Rule for the calls: active = hit-call score of the fitted dose curve at least 0.9, where 1 is the maximum; inconclusive = response in the unintended direction; inactive = score below 0.9.
The reply should name one outcome from active, inactive

>>> assigned_label("COP(=S)(OC)Oc1ccc(SC)c(C)c1")
"active"
>>> assigned_label("Oc1cc(Cl)ccc1Oc1ccc(Cl)cc1Cl")
"active"
>>> assigned_label("CC(C)(C)C(O)/C(=C\\c1ccc(Cl)cc1Cl)n1cncn1 (centres undefined)")
"inactive"
>>> assigned_label("O=C(O)C(F)(F)C(F)(F)C(F)(F)C(F)(F)C(F)(F)C(F)(F)C(F)(F)F")
"active"
>>> assigned_label("CC1(C)C(C=C(Cl)Cl)C1C(=O)OC(C#N)c1ccc(F)c(Oc2ccccc2)c1 (centres undefined)")
"inactive"
>>> assigned_label("CCCN(CCC)c1c([N+](=O)[O-])cc(C(F)(F)F)cc1[N+](=O)[O-]")
"inactive"
>>> assigned_label("Oc1ccc(Cl)cc1Cc1ccccc1")
"inactive"
>>> assigned_label("O=S(=O)(O)C(F)(F)C(F)(F)C(F)(F)C(F)(F)C(F)(F)C(F)(F)C(F)(F)C(F)(F)F")
"inactive"

Kindly consider the entry below.
// return assay outcome for CCCN(CCOc1c(Cl)cc(Cl)cc1Cl)C(=O)n1ccnc1
inactive

###

SYSTEM: human MAP Kinase-Activated Protein Kinase 2 (MAPKAPK2), MAPKAPK2 (gene 9261) (UniProt P49137)
Sequence (P49137 whole entry, looked up): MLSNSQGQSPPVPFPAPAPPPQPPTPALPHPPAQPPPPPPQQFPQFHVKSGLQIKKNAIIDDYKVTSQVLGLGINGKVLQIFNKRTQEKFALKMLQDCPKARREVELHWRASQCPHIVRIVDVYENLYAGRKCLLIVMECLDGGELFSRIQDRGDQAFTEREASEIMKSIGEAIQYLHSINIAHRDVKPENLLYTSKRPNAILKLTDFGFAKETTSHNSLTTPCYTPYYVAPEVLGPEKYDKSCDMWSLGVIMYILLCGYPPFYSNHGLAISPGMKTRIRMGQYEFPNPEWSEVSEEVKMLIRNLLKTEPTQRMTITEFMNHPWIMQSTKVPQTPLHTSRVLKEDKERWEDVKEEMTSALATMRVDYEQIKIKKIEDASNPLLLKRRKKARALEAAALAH
RUN_DESCRIPTION: NVS_ENZ_hMAPKAPK2: NovaScreen (NVS) Enzymatic Assay for human MAP Kinase-Activated Protein Kinase 2 (MAPKAPK2) (AID 2283178)
Results filed as inconclusive are left out. The source made the active and inactive calls. Rule for the calls: active = hit-call score of the fitted dose curve at least 0.9, where 1 is the maximum; inconclusive = response in the unintended direction; inactive = score below 0.9.
OBSERVABLE: AC50

>>> reported("Cc1cc(C)nc(NC(=O)NS(=O)(=O)c2ccccc2C(=O)OC2COC2)n1")
"18.6 µM (active)"
>>> reported("O=S(=O)(O)C(F)(F)C(F)(F)C(F)(F)C(F)(F)C(F)(F)C(F)(F)C(F)(F)C(F)(F)F")
"inactive"
>>> reported("Oc1ccc(Cl)cc1Cc1ccccc1")
"inactive"
>>> reported("O=C(O)C(F)(F)C(F)(F)C(F)(F)C(F)(F)C(F)(F)C(F)(F)C(F)(F)F")
"inactive"

###

SYSTEM: Peroxisome proliferator-activated receptor gamma (Homo sapiens) (UniProt P37231)
Sequence (P37231 whole entry, looked up): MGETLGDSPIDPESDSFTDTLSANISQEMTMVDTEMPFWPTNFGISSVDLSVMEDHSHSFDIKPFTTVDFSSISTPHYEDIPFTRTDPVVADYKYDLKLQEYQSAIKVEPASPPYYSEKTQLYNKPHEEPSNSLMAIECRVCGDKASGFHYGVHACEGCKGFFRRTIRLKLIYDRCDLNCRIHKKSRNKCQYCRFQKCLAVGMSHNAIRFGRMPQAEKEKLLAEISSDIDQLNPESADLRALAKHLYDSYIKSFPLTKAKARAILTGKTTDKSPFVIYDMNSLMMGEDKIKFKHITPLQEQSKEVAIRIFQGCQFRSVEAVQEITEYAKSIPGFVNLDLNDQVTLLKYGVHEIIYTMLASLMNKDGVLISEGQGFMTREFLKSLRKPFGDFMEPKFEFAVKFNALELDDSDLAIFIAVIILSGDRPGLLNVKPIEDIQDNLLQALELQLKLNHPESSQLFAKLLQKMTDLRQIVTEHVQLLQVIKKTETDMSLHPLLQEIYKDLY
RUN_DESCRIPTION: ATG_PPARg_TRANS: Attagene TRANS-FACTORIAL HepG2 Assay for human Peroxisome Proliferator-activated Receptor-gamma (PPARg) (AID 2283007)
Inconclusive results are not listed. Calls of active or inactive are those of the source. How the source made its calls: active means hit-call score of the fitted dose curve at least 0.9, where 1 is the maximum; inconclusive means response in the unintended direction; inactive means score below 0.9.
The reply should name one outcome from yes (active), no (inactive)

// return assay outcome for CC(C)N(C(=O)COc1nnc(C(F)(F)F)s1)c1ccc(F)cc1
yes

Now this one: O=[N+]([O-])c1c(Cl)c(Cl)c(Cl)c(Cl)c1Cl
yes

Now this one: C#CCN1C(=O)COc2cc(F)c(N3C(=O)C4=C(CCCC4)C3=O)cc21
yes

Now this one: N#Cc1c(Cl)c(Cl)c(Cl)c(C#N)c1Cl
no

Now this one: COP(=S)(OC)Oc1ccc([N+](=O)[O-])cc1
no

Now this one: COP(=S)(OC)Oc1ccc(SC)c(C)c1
yes

Now this one: CCCN(CCOc1c(Cl)cc(Cl)cc1Cl)C(=O)n1ccnc1
no

Now this one: CCN(CC)C(=O)SCc1ccc(Cl)cc1
yes

Now this one: CNC(=O)Oc1ccccc1OC(C)C
no

Now this one: CC(C)(C)C(O)/C(=C\c1ccc(Cl)cc1Cl)n1cncn1 (stereo not given)
no

Now this one: Clc1ccccc1-c1nnc(-c2ccccc2Cl)nn1
yes

Now this one: CCOc1nc(NC)nc(NC(=O)NS(=O)(=O)c2ccccc2C(=O)OC)n1
no

Now this one: COC(=O)c1ccccc1CS(=O)(=O)NC(=O)Nc1nc(OC)cc(OC)n1
no

Now this one: N#CN
no

Now this one: CC(C)OC(=O)Nc1cccc(Cl)c1
yes

###

Read-out: Insulin-like growth factor-binding protein 1 (IGFBP1), IGFBP1 (gene 3484)
RUN_DESCRIPTION: LTEA_HepaRG_IGFBP1: Life Technologies and Expression Analysis (LTEA) Assay for Insulin-like growth factor-binding protein 1 (IGFBP1) using HepaRG (AID 2283508)
DETAILS: mRNA level, 48 h; actives raise or lower the signal
Activity calls are given as the source filed them. How the source made its calls: active means hit-call score of the fitted dose curve at least 0.9, where 1 is the maximum; inactive means score below 0.9.
The reply should name one outcome from active, inactive

// return assay outcome for COP(=O)(OC)OC=C(Cl)Cl
inactive

###

Read-out: BCL2L11 (gene 10018)
RUN_DESCRIPTION: LTEA_HepaRG_BCL2L11: Life Technologies and Expression Analysis (LTEA) Assay for Bcl-2 (BCL2L11) gene using HepaRG (AID 2283473)
DETAILS: mRNA level, 48 h; actives raise or lower the signal
Calls of active or inactive are those of the source. The calls were made as follows: active = hit-call score of the fitted dose curve at least 0.9, where 1 is the maximum; inactive = score below 0.9.
The reply should name one outcome from t (active), f (inactive)

>>> assigned_label("OCCOc1ccccc1")
"f"
>>> assigned_label("O=C(O)CCCOc1ccc(Cl)cc1Cl")
"f"
>>> assigned_label("Clc1ccccc1-c1nnc(-c2ccccc2Cl)nn1")
"f"
>>> assigned_label("COP(=S)(OC)Oc1ccc([N+](=O)[O-])cc1")
"f"

// return assay outcome for CC1(c2ccc(Oc3ccccc3)cc2)OC(=O)N(Nc2ccccc2)C1=O (stereo not drawn)
t

Now this one: CCC(C)Nc1c([N+](=O)[O-])cc(C(C)(C)C)cc1[N+](=O)[O-] (stereo not drawn)
f

Now this one: CC1(C)C(C=C(Cl)Cl)C1C(=O)OC(C#N)c1ccc(F)c(Oc2ccccc2)c1 (stereo not drawn)
f

Now this one: N#CN
f

###

SYSTEM: Cytochrome P450 2C18 (Homo sapiens) (UniProt P33260)
Sequence (P33260 whole entry, looked up): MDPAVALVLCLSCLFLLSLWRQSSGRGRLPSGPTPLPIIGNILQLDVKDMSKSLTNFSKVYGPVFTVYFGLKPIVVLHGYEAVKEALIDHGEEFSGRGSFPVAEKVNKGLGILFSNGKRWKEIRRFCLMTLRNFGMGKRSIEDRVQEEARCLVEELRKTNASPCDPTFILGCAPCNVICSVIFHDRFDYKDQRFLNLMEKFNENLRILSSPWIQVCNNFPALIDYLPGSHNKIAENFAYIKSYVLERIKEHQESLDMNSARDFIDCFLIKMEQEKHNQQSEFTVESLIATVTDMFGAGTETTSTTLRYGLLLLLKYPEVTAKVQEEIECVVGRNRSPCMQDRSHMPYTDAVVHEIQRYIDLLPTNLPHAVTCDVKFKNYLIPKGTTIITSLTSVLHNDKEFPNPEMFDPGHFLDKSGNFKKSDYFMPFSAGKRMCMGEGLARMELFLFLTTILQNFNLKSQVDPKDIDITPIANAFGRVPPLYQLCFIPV
RUN_DESCRIPTION: NVS_ADME_hCYP2C18: NovaScreen (NVS) CYP450-related Enzyme Activity (ADME) Assay for human CYP2C18 (AID 2283103)
Activity calls are given as the source filed them. How the source made its calls: active means hit-call score of the fitted dose curve at least 0.9, where 1 is the maximum; inactive means score below 0.9.
I'd appreciate it if you could supply AC50 values for the items below.

>>> reported("O=S(=O)(O)C(F)(F)C(F)(F)C(F)(F)C(F)(F)C(F)(F)C(F)(F)C(F)(F)C(F)(F)F")
"0.875 µM (active)"
>>> reported("CC[C@H](C)[C@H]1O[C@]2(C=C[C@@H]1C)C[C@@H]1C[C@@H](C/C=C(\\C)[C@@H](O[C@H]3C[C@H](OC)[C@@H](O[C@H]4C[C@H](OC)[C@@H](O)[C@H](C)O4)[C@H](C)O3)[C@@H](C)/C=C/C=C3\\CO[C@@H]4[C@H](O)C(C)=C[C@@H](C(=O)O1)[C@]34O)O2 (tested in a mixture with another compound)")
"5.02 µM (active)"
>>> reported("CC(C)(C)C(O)C(Oc1ccc(Cl)cc1)n1cncn1 (centres undefined)")
"7.93 µM (active)"

Field: next molecule
Endpoint output: AC50 of COP(=S)(OC)Oc1ccc([N+](=O)[O-])cc1 . Value?
2.7 µM (active)
